test: self-splicing fitness, log relative to wild type (ln ratio); higher = more splicing; Tetrahymena group I intron in knt gene, E. coli kanamycin selection, DiMSum; sequences stand for … in CUCUCU…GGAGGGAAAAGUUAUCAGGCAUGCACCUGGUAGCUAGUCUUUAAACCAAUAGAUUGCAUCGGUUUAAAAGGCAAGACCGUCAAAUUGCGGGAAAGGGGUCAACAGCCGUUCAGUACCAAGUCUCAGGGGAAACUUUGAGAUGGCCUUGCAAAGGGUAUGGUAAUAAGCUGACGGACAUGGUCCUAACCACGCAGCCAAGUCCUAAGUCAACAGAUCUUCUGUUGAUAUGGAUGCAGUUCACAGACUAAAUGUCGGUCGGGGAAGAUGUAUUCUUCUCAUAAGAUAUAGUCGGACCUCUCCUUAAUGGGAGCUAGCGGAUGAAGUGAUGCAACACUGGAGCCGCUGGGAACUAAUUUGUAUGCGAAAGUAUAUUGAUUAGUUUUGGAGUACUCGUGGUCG; details: 30 °C;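 further: selection with 25 µg/mL kanamycin versus none on LB agar overnight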
Use -3 as the dividing line for self-splicing fitness (ln), with the line itself on the Criterion met side and lower values as Criterion not met.

{"MACROMOLECULE_SEQUENCE": "CACAAGCAAUAUUACGACUG", "GROUP": "Criterion met"}
{"MACROMOLECULE_SEQUENCE": "AGCCAGCAAUAUUACGUAAG", "GROUP": "Criterion met"}
{"MACROMOLECULE_SEQUENCE": "GGUAAGCAAUAUUACGCUCU", "GROUP": "Criterion not met"}
{"MACROMOLECULE_SEQUENCE": "GUUGAGCAAUAUUACGAUUU", "GROUP": "Criterion met"}
{"MACROMOLECULE_SEQUENCE": "UCCUAGCAAUAUUACGAUAG", "GROUP": "Criterion met"}
{"MACROMOLECULE_SEQUENCE": "AAACAGCAAUAUUACGGGCG", "GROUP": "Criterion met"}
{"MACROMOLECULE_SEQUENCE": "AACAAGCAAUAUUACGCCAA", "GROUP": "Criterion met"}
{"MACROMOLECULE_SEQUENCE": "UCGGAGCAAUAUUACGGUGU", "GROUP": "Criterion not met"}
{"MACROMOLECULE_SEQUENCE": "AGGCAGCAAUAUUACGGGAG", "GROUP": "Criterion not met"}
{"MACROMOLECULE_SEQUENCE": "AGCUAGCAAUAUUACGCUCU", "GROUP": "Criterion met"}
{"MACROMOLECULE_SEQUENCE": "GCAUAGCAAUAUUACGUCAA", "GROUP": "Criterion met"}
{"MACROMOLECULE_SEQUENCE": "GUGAAGCAAUAUUACGCCGC", "GROUP": "Criterion met"}
{"MACROMOLECULE_SEQUENCE": "CUACAGCAAUAUUACGGGUG", "GROUP": "Criterion met"}
{"MACROMOLECULE_SEQUENCE": "GGUCAGCAAUAUUACGUGGU", "GROUP": "Criterion met"}
{"MACROMOLECULE_SEQUENCE": "GCUCAGCAAUAUUACGCUAU", "GROUP": "Criterion met"}
{"MACROMOLECULE_SEQUENCE": "GACCAGCAAUAUUACGUGAC", "GROUP": "Criterion met"}
{"MACROMOLECULE_SEQUENCE": "GAUUAGCAAUAUUACGAUAC", "GROUP": "Criterion met"}
{"MACROMOLECULE_SEQUENCE": "GUGUAGCAAUAUUACGGACG", "GROUP": "Criterion met"}
{"MACROMOLECULE_SEQUENCE": "GAAGAGCAAUAUUACGUAGA", "GROUP": "Criterion not met"}
{"MACROMOLECULE_SEQUENCE": "AAUUAGCAAUAUUACGCGCU", "GROUP": "Criterion met"}
{"MACROMOLECULE_SEQUENCE": "AACCAGCAAUAUUACGUGGG", "GROUP": "Criterion not met"}
{"MACROMOLECULE_SEQUENCE": "CAAAAGCAAUAUUACGGUUG", "GROUP": "Criterion met"}
{"MACROMOLECULE_SEQUENCE": "CGAUAGCAAUAUUACGGGUC", "GROUP": "Criterion not met"}
{"MACROMOLECULE_SEQUENCE": "GGGCAGCAAUAUUACGUACC", "GROUP": "Criterion met"}
{"MACROMOLECULE_SEQUENCE": "GUAUAGCAAUAUUACGCUUG", "GROUP": "Criterion met"}
{"MACROMOLECULE_SEQUENCE": "GACAAGCAAUAUUACGGCGA", "GROUP": "Criterion met"}
{"MACROMOLECULE_SEQUENCE": "AGGCAGCAAUAUUACGUUGU", "GROUP": "Criterion met"}
{"MACROMOLECULE_SEQUENCE": "AAACAGCAAUAUUACGAAGC", "GROUP": "Criterion not met"}
{"MACROMOLECULE_SEQUENCE": "GGCAAGCAAUAUUACGAGGA", "GROUP": "Criterion not met"}
{"MACROMOLECULE_SEQUENCE": "AUAUAGCAAUAUUACGGUCU", "GROUP": "Criterion met"}
{"MACROMOLECULE_SEQUENCE": "AAAGAGCAAUAUUACGCAUC", "GROUP": "Criterion not met"}
{"MACROMOLECULE_SEQUENCE": "GGUCAGCAAUAUUACGACGC", "GROUP": "Criterion met"}
{"MACROMOLECULE_SEQUENCE": "AAAGAGCAAUAUUACGGGCG", "GROUP": "Criterion met"}
{"MACROMOLECULE_SEQUENCE": "UCUUAGCAAUAUUACGACCG", "GROUP": "Criterion met"}
{"MACROMOLECULE_SEQUENCE": "GAGUAGCAAUAUUACGAGCG", "GROUP": "Criterion met"}
{"MACROMOLECULE_SEQUENCE": "AGCAAGCAAUAUUACGUCCA", "GROUP": "Criterion met"}
{"MACROMOLECULE_SEQUENCE": "CCUAAGCAAUAUUACGCGUU", "GROUP": "Criterion not met"}
{"MACROMOLECULE_SEQUENCE": "UCCUAGCAAUAUUACGUUCG", "GROUP": "Criterion met"}
{"MACROMOLECULE_SEQUENCE": "AGGCAGCAAUAUUACGUGUC", "GROUP": "Criterion not met"}
{"MACROMOLECULE_SEQUENCE": "CUCAAGCAAUAUUACGUUGC", "GROUP": "Criterion not met"}
{"MACROMOLECULE_SEQUENCE": "UACCAGCAAUAUUACGCGAC", "GROUP": "Criterion not met"}
{"MACROMOLECULE_SEQUENCE": "AGCGAGCAAUAUUACGACAU", "GROUP": "Criterion met"}
{"MACROMOLECULE_SEQUENCE": "CACAAGCAAUAUUACGGAUU", "GROUP": "Criterion not met"}
{"MACROMOLECULE_SEQUENCE": "GAUCAGCAAUAUUACGUUGG", "GROUP": "Criterion not met"}
{"MACROMOLECULE_SEQUENCE": "CACCAGCAAUAUUACGGCGA", "GROUP": "Criterion met"}
{"MACROMOLECULE_SEQUENCE": "UGCAAGCAAUAUUACGGCAC", "GROUP": "Criterion not met"}
{"MACROMOLECULE_SEQUENCE": "GAUAAGCAAUAUUACGUCAU", "GROUP": "Criterion met"}

---

experiment: self-splicing fitness, log relative to wild type (ln ratio); higher = more splicing; Tetrahymena group I intron in knt gene, E. coli kanamycin selection, DiMSum; sequences stand for … in CUCUCU…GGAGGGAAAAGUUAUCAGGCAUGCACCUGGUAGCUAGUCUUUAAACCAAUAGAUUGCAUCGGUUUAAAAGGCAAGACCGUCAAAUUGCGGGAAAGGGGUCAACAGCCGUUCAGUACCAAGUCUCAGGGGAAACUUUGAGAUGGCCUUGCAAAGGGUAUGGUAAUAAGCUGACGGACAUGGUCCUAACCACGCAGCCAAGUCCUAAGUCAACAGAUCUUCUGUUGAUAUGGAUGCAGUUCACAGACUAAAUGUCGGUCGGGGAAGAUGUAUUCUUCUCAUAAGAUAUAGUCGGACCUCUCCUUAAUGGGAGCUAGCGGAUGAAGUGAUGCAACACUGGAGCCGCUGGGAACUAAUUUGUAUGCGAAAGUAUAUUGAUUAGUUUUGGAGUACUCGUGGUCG; conditions: 30 °C
Use -2 as the dividing line for self-splicing fitness (ln), with the line itself on the criterion met side and lower values as criterion not met.

{"MACROMOLECULE_SEQUENCE": "UAAUAGCAAUAUUACGGCCA", "GROUP": "criterion met"}
{"MACROMOLECULE_SEQUENCE": "GAUCAGCAAUAUUACGAUCC", "GROUP": "criterion not met"}
{"MACROMOLECULE_SEQUENCE": "AUGUAGCAAUAUUACGAGUA", "GROUP": "criterion not met"}
{"MACROMOLECULE_SEQUENCE": "CCCGAGCAAUAUUACGCGUC", "GROUP": "criterion not met"}
{"MACROMOLECULE_SEQUENCE": "GUCCAGCAAUAUUACGCACG", "GROUP": "criterion not met"}
